B1: PLK2 (parent)
chain: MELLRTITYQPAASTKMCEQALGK

Variants of: B1
TEST NAME: protein stability index of a GFP-peptide fusion (GPS, HEK-293T) (PSI 1-6); higher = more stable;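 also: lentivirally expressed fusions sorted by FACS into six bins by GFP to DsRed ratio, PSI derived from sequencing read proportions per bin multiplied by bin number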
MEASUREMENT PARAMETERS: c terminus: a fixed tail appended
# protein stability index annotations
READOUT KIND: protein stability index

variant_string=E19V readout_kind="protein stability index" numeric_readout=2.46
variant_string=T8L readout_kind="protein stability index" numeric_readout=2.91
variant_string=T8R readout_kind="protein stability index" numeric_readout=2.5
variant_string=A12N readout_kind="protein stability index" numeric_readout=2.8
variant_string=L4F readout_kind="protein stability index" numeric_readout=2.05
variant_string=K16I readout_kind="protein stability index" numeric_readout=2.61
variant_string=T8G readout_kind="protein stability index" numeric_readout=2.44
variant_string=L3F readout_kind="protein stability index" numeric_readout=2.56
variant_string=E19F readout_kind="protein stability index" numeric_readout=2.15
variant_string=P11N readout_kind="protein stability index" numeric_readout=1.82
variant_string=A12R readout_kind="protein stability index" numeric_readout=2.34
variant_string=S14P readout_kind="protein stability index" numeric_readout=1.5
variant_string=E2N readout_kind="protein stability index" numeric_readout=2.61
variant_string=S14Y readout_kind="protein stability index" numeric_readout=3.88
variant_string=T6I readout_kind="protein stability index" numeric_readout=2.65
variant_string=L3G readout_kind="protein stability index" numeric_readout=1.89
variant_string=K24V readout_kind="protein stability index" numeric_readout=2.86
variant_string=T15E readout_kind="protein stability index" numeric_readout=2.53
variant_string=M1D readout_kind="protein stability index" numeric_readout=3.64
variant_string=T6E readout_kind="protein stability index" numeric_readout=3.17
variant_string=T6V readout_kind="protein stability index" numeric_readout=2.55
variant_string=Q20H readout_kind="protein stability index" numeric_readout=2.51
variant_string=K16V readout_kind="protein stability index" numeric_readout=1.96
variant_string=M1Q readout_kind="protein stability index" numeric_readout=3.84
variant_string=Q20N readout_kind="protein stability index" numeric_readout=1.69
variant_string=L3T readout_kind="protein stability index" numeric_readout=1.94
variant_string=I7S readout_kind="protein stability index" numeric_readout=2.54
variant_string=I7Y readout_kind="protein stability index" numeric_readout=2.6
variant_string=E19A readout_kind="protein stability index" numeric_readout=2.59
variant_string=Q10N readout_kind="protein stability index" numeric_readout=3.54
variant_string=P11S readout_kind="protein stability index" numeric_readout=3.09
variant_string=Q20P readout_kind="protein stability index" numeric_readout=2.62
variant_string=L3C readout_kind="protein stability index" numeric_readout=2.17
variant_string=S14N readout_kind="protein stability index" numeric_readout=3.48
variant_string=A21K readout_kind="protein stability index" numeric_readout=1.51
variant_string=L22G readout_kind="protein stability index" numeric_readout=3.33
variant_string=A21W readout_kind="protein stability index" numeric_readout=3.26
variant_string=E2C readout_kind="protein stability index" numeric_readout=1.93
variant_string=C18A readout_kind="protein stability index" numeric_readout=3.42
variant_string=Q10S readout_kind="protein stability index" numeric_readout=2.54
variant_string=P11K readout_kind="protein stability index" numeric_readout=1.93
variant_string=C18T readout_kind="protein stability index" numeric_readout=2.67
variant_string=K24E readout_kind="protein stability index" numeric_readout=1.41
variant_string=T15C readout_kind="protein stability index" numeric_readout=2.07
variant_string=E2F readout_kind="protein stability index" numeric_readout=1.69
variant_string=L22A readout_kind="protein stability index" numeric_readout=2.29
